System: MT4
Assay Details: Cytotoxicity against human MT4 cells assessed as reduction in cell viability by celltiter-glo luminescent cell viability assay
Format: toxicity, cell-based
Value Type: CC50 (µM)
A number alone suffices; assume µM.

// fetch CC50 given entry C=C(C)[C@]12C[C@@H](COC(=O)c3ccccc3)[C@]34OC5(CCCCCCC[C@H](C)[C@@H]6[C@@H]3[C@]3(O[C@]6(C)OC3=O)[C@H](O)[C@@]3(CO)O[C@H]3[C@H]4[C@H]1O5)O2
18.8

Output measured CC50 for this item: C=C(C)[C@]12C[C@@H](COC(=O)c3ccccc3)[C@]34OC5(CCCCCCC[C@@H](C)[C@@H]6[C@@H]3[C@]3(O[C@]6(C)OC3=O)[C@H](O)[C@@]3(CO)O[C@H]3[C@H]4[C@H]1O5)O2
21.7

In one line, give reported CC50 of the entry C=C(C)[C@]12C[C@@H](C)[C@]34OC5(CCCCCCC[C@H](C)[C@@H]6[C@@H]3[C@@](O)(C(=O)[C@@]6(C)O)[C@H](O)[C@@]3(CO)O[C@H]3[C@H]4[C@H]1O5)O2 .
24.2
